The measurements presented in this section are drawn from PubChem BioAssay AID2685.

experiment.summary: qHTS Assay for Lipid Storage Modulators in Drosophila S3 Cells; note: potency is the fitted concentration of half-maximal effect
measurement.context: BODIPY lipid droplet fluorescence, 18-24 h, cells fed with added oleic acid; series mostly up to 46.1 µM
The campaign covered roughly 320,000 compounds. About 2,100 (0.66%) were called active. Roughly 53% stayed inconclusive and do not appear here. This excerpt belongs to a sample that is enriched for actives.
readout.label: Potency

| molecule | Potency |
| --- | --- |
| Cc1ccc(Cl)cc1N(CC(=O)NC1CCCC1)C(=O)c1csnn1 | 820 nM (active) |
| O=C(CCl)N1c2ccccc2SCC1c1ccccc1 (stereo unspecified) | 1030 nM (active) |
| O=C(CCl)N1c2ccccc2OCC1c1ccccc1 (stereo unspecified) | inactive |
| CSc1nsc(SCC(=O)N2CCc3ccccc32)n1 | inactive |
| O=C(O)CN1C(=O)CSc2ccccc21 | inactive |

Continue with the next molecule.
Given `N#CCCN1CCN(S(=O)(=O)c2ccc(S(=O)(=O)NC3CC3)cc2)CC1` , state its recorded Potency.
inactive

----------
experiment.summary: qHTS Assay for Lipid Storage Modulators in Drosophila S3 Cells;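 for cell number change: cells counted by Cell Tracker Red CMTPX staining in the red channel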
measurement.context: BODIPY lipid droplet fluorescence, 18-24 h, cells fed with added oleic acid; measured here: cell count max response
From the text: NIH Molecular Libraries Probe Production Centers Network [MLPCN] NIH Chemical Genomics Center [NCGC] […] Triacsin C (Sigma-Aldrich T-4540), an inhibitor of long-chain fatty acyl CoA synthetase that blocks synthesis of triglycerides, was used as a positive control for lipid under-storage. […] Fluorescence was detected by excitation of the fluorophores with a 488-nm laser on an Acumen Explorer (TTP Lab Tech). […] Cells were detected using channel 3 (575-640 nm) with 5-um width and 100-um depth filters. […]
The whole screen tested about 320,000 compounds, of which about 2,100 (0.66%) were called active. About 53% were inconclusive and are not listed. The list comes from a sample in which actives are over-represented; it also holds close analogues and randomly drawn compounds.
Answer FALSE if cell number change is under -10%, and TRUE if it is -10% or more.

| structure.as.smiles | class |
| --- | --- |
| CC(C)(C)OC(=O)[C@H](Cc1ccccc1)NC(=O)c1[nH]cnc1C(=O)Nc1ccc(Cl)cc1 | FALSE |
| Cc1cnc(C(=O)Nc2cccc(-c3nnc4n3CCCCC4)c2)cn1 | TRUE |
| Cc1c(C(=O)NCCC2=CCCCC2)oc2ccc(S(=O)(=O)N3CCOCC3)cc12 | FALSE |

Item `CCOC(=O)c1ccc(NC(=O)c2nc[nH]c2C(=O)N[C@@H](CC(C)C)C(=O)OC(C)(C)C)cc1` with cell number change of -10% or above?
TRUE

----------
experiment.summary: qHTS Assay for Lipid Storage Modulators in Drosophila S3 Cells
measurement.context: BODIPY lipid droplet fluorescence, 18-24 h, cells fed with added oleic acid; series mostly up to 46.1 µM
The campaign covered roughly 320,000 compounds. About 2,100 (0.66%) were called active. Another 53% or so got no clear call; they are omitted. The call rests on the fitted dose curve; in most records, active means well fitted inhibition curve with a large enough effect in the signal ratio, with a control signal flat (not every such curve was filed as active); inconclusive means small, poorly fitted or top-dose-only effect, or effect the other way, or a change in a side signal; inactive means flat fitted curve, though single readings scatter; the % refers to the signal ratio. This excerpt belongs to a sample that is enriched for actives.
Outcome (select one): active, inactive

Please review the entries below; each comes with its answer.
| compound | class |
| --- | --- |
| O=C(Cc1ccccc1)NCc1n[nH]c(=S)n1-c1ccc(Br)cc1 | inactive |
| CNC(=O)/C(C#N)=C\c1ccc(CNS(=O)(=O)c2ccc(Cl)cc2)o1 | inactive |

Please indicate how the test categorized CCC1CCCCN1C(=O)CSc1nnc(CNC(=O)c2cc(OC)c(OC)c(OC)c2)o1 (configuration not stated) .
inactive

Input COCCn1c(SCC(=O)NC(C)c2ccc(F)cc2)nc2ccccc21 (configuration not stated)
inactive

Input CCC1Oc2ccccc2N(CC(=O)NC2CCCCC2)C1=O (configuration not stated)
inactive

Input `COc1cc(OC)c(CN2CCCN(C)CC2)cc1Br`
inactive

Input `CCN(CC)c1nc(N)nc(NS(=O)(=O)c2ccc(Cl)cc2)n1`
inactive

Input `CC(=O)NNc1[nH]c2c(c(=O)c1[N+](=O)[O-])c(=O)n(C)c(=O)n2C`
inactive
